molecular target: Neutrophil elastase (Homo sapiens); experiment: Ki value was evaluated for the inhibition of human leukocyte elastase
Sequence (P08246 whole entry): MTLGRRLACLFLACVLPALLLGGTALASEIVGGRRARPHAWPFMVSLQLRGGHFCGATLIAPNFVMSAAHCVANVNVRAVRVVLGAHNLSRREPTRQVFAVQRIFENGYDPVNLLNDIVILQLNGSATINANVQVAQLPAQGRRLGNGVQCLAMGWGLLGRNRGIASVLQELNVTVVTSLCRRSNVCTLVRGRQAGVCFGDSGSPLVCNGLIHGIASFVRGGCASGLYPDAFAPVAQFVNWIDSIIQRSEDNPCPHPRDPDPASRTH
metric: Ki (µM)
I only need the number, in µM, no unit after it.

COC(=O)[C@@H](NC(=O)n1ccnc1)C(C)C; 1800
CCC[C@H](NC(=O)n1ccnc1)C(=O)OC; 320

# input molecule: CCCCC(NC(=O)n1ccnc1)C(=O)OC (stereo not drawn) ; wanted: its Ki 1000

====

Reported k3 by item:
molecular target: Pancreatic elastase (Sus scrofa) (UniProt P08419+P00772); test: k3 value was evaluated for the inhibition of porcine pancreatic Elastase; type: protein assay
Please state the figure in min⁻¹; there is no need to write the unit.

Answered cases to consult:
CCC[C@H](NC(=O)n1ccnc1)C(=O)OC; 0.322
CCCCNC(=O)n1ccnc1CC; 0.12
CCC(C)[C@H](NC(=O)n1ccnc1)C(=O)OC (stereo not given in full); 0.07
COC(=O)[C@H](CC(C)C)NC(=O)n1ccnc1; 0.04

Here is the next item to consider.
Reported k3 for Pancreatic elastase (Sus scrofa) (UniProt P08419+P00772), given `CCCCCCCc1nccn1C(=O)NCCCC` ? 0.12
